Potency by entry:
experiment: qHTS of pediatric cancer cell lines to identify multiple opportunities for drug repurposing: Confirmatory screen for BT-37 cells (AID 1347117);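 note: potency is the fitted concentration of half-maximal effect; viability measured after 48 h of compound exposure; nearly all actives have a fitted effect of over 55% in size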
assay conditions: BT-37 pediatric cancer cells, viability
Results filed as inconclusive are left out. Active and inactive are the calls of the source. Calls come from the whole dose curve; as a rule, active = well fitted cell-killing curve with a large enough effect; inconclusive = small, poorly fitted or top-dose-only effect; inactive = no such curve, though single readings can be large or run the other way.

[[record]]
smiles_repr = "COC(=O)c1nc(Cl)c(Cl)nc1N"
observed = "1470 nM (active)"


GET /values?readout=Potency&item= [O-][n+]1ccccc1SSc1cccc[n+]1[O-]
811 nM (active)

Another: N=C1N=C(N)c2cc3ccccc3cc21
38000 nM (active)

Also check CN(C)c1ccc(C(=C2C=CC(=[N+](C)C)C=C2)c2ccccc2)cc1
657 nM (active)
